In this section, each of the molecules is paired with its reported remaining activity.
tested on: Aerobactin synthetase IucA (Klebsiella pneumoniae, hypervirulent); assay: IucA enzyme inhibition, biochemical, LOPAC library, absorbance readout (AID 1346212); settings: IucA enzyme assay, absorbance (OD) readout; hits give low values;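 tested at 8 µM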;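 further: 100% = no compound wells and 0% = no enzyme wells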
Express the result in % but write the number alone.

Some molecules with known remaining activity results, for comparison:
NC(=O)C(=O)O :: 121
CCCc1c(-c2ccc(O)cc2)nn(-c2ccc(O)cc2)c1-c1ccc(O)cc1 :: 102
CN=C(N)NCCC[C@H](N)C(=O)O :: 111
C[C@](N)(Cc1ccc(O)c(O)c1)C(=O)O :: 113

Query block: Which measured remaining activity value corresponds to NC1(C(=O)O)CC1 ?
Result block: 88.1

Query block: So what does the record say about remaining activity for O=C(O)c1ccccc1Nc1cccc(OCc2ccc3ccccc3n2)c1 ?
Result block: 125

Query block: Which remaining activity reading was recorded for the molecule CC(=O)S[C@@H]1CC2=CC(=O)CC[C@]2(C)[C@H]2CC[C@@]3(C)[C@@H](CC[C@@]34CCC(=O)O4)[C@H]12 ?
Result block: 108

Query block: Suppose we examine the molecule NC(=Nc1ccccc1)NC(=O)c1nc(Cl)c(N)nc1N ; what remaining activity value has been reported?
Result block: 105

Query block: Fill in: remaining activity of O=c1c(O)c(-c2ccc(O)c(O)c2)oc2cc(O)cc(O)c12 is ___
Result block: 122

Query block: Tell me the measured remaining activity of COc1ccc(C(=O)N2CCCC2=O)cc1 , please.
Result block: 122

Query block: Record request: remaining activity value, item CN1C[C@H](CNC(=O)OCc2ccccc2)C[C@@H]2c3cccc4c3c(cn4C)C[C@H]21
Result block: 130

Query block: Can you share its remaining activity? I mean this molecule: Cc1ccccc1C(OCCN(C)C)c1ccccc1 (stereo not drawn)
Result block: 117

Query block: Field request: remaining activity | item: Nc1ncnc2c1c(-c1ccc(Oc3ccccc3)cc1)cn2C1CCCC1
Result block: 122
